assay: Intrinsic clearance in rat liver microsomes at 3 uM by LC/MS-MS analysis; format: ADME, Microsome
MEASUREMENT LABEL: microsomal CLint at 3 µM (µL/min/mg)

P = Cc1cc2[nH]ncc2cc1NC(=O)c1cc(N(CC2CC2)C2CCCCC2)ncn1
Q = Cc1cc(O)ccc1NC(=O)c1cc(NC2CCCCC2)ncn1
In: Between P and Q , which one has the lower reported microsomal CLint at 3 µM value? Your answer should be the label attached to the chosen record.
Out: Q
(Q: 18 µL/min/mg, P: 26 µL/min/mg)

* * *

biological target: UniProt Q99500; test: Agonist activity at S1P3 receptor expressed in CHO cells after 60 mins by [35S]-GTPgammaS binding assay
Sequence (Q99500 whole entry): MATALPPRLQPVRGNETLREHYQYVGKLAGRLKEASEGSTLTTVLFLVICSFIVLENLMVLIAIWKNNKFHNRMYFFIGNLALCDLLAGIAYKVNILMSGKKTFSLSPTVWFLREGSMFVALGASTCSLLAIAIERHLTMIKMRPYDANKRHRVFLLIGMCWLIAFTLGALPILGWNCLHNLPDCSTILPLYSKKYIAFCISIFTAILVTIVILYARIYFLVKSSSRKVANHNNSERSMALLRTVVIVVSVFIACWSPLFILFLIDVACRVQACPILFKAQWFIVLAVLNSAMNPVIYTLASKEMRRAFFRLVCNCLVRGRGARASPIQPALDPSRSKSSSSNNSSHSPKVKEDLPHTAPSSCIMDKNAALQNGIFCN
pEC50: −log10 of the molar value.
Entries and their pEC50 values follow.

Field: example entries. Status: answers known.
* O=C(O)CCNCc1ccc(NC(=O)c2cc(N(CC3CC3)C3CCCCC3)ncn2)cc1 | 5.96
* Cc1cc(O)ccc1NC(=O)c1cc(NC2CCCCC2)ncn1 | < 4.52
* Cc1cc(O)ccc1NC(=O)c1cc(N(CC2CC2)C2CCCCC2)ncn1 | < 4.52
* Cc1cc(S(N)(=O)=O)ccc1NC(=O)c1cc(N(CC2CC2)C2CCCCC2)ncn1 | < 4.52
* O=C(Nc1ccc(O)cc1)c1cc(NC2CCCCC2)ncn1 | < 4.52

In: Any idea what its pEC50 is? The compound is Cc1cc(CN2CC(C(=O)O)C2)ccc1NC(=O)c1cc(N(CC2CC2)C2CCCCC2)ncn1
Out: 6.63

In: Any idea what its pEC50 is? The compound is Cc1cc(S(N)(=O)=O)ccc1NC(=O)c1cc(NC2CCCCC2)ncn1
Out: < 4.52

* * *

test: Lipophilicity, log D at pH 7.4; type: physicochemical; conditions: buffer
MEASUREMENT LABEL: logD

In: Any idea what its logD is? The compound is Cc1cc(CN2CC(C(=O)O)C2)ccc1NC(=O)c1cc(N(CC2CC2)C2CCCCC2)ncn1
Out: > 2.7

* * *

assay: Intrinsic clearance in human liver microsomes at 3 uM by LC/MS-MS analysis; format: ADME, Microsome
MEASUREMENT LABEL: microsomal CLint at 3 µM (µL/min/mg)

• Cc1cc(O)ccc1NC(=O)c1cc(N(CC2CC2)C2CCCCC2)ncn1 = 22

P = CCCN(CCC)c1cc(C(=O)Nc2ccc(O)cc2)ncn1
Q = CCCN(CC1CC1)c1cc(C(=O)Nc2ccc3[nH]ncc3c2)ncn1
In: Between P and Q , which one has the lower reported microsomal CLint at 3 µM value? Your answer should be the label attached to the chosen record.
Out: P

* * *

assay: Apparent permeability across human Caco-2 cells by LC/MS-MS analysis; format: ADME, cell-based
MEASUREMENT LABEL: Papp (nm/s)

Field: example entries. Status: answers known.
* Cc1cc2[nH]ncc2cc1NC(=O)c1cc(N(CC2CC2)C2CCCCC2)ncn1 | 1
* Cc1cc(S(=O)(=O)NCCC(=O)O)ccc1NC(=O)c1cc(N(CC2CC2)C2CCCCC2)ncn1 | 20
* Cc1cc(CN2CC(C(=O)O)C2)ccc1NC(=O)c1cc(N(CC2CC2)C2CCCCC2)ncn1 | 24
* CCCN(CC1CC1)c1cc(C(=O)Nc2ccc3[nH]ncc3c2)ncn1 | 85
* Cc1cc(O)ccc1NC(=O)c1cc(NC2CCCCC2)ncn1 | 218

A = O=C(O)CCNCc1ccc(NC(=O)c2cc(N(CC3CC3)C3CCCCC3)ncn2)cc1
B = Cc1cc(S(N)(=O)=O)ccc1NC(=O)c1cc(NC2CCCCC2)ncn1
In: Between A and B , which one has the lower reported Papp value? Your answer should be the label attached to the chosen record.
Out: A
(A: 8 nm/s, B: 125 nm/s)

* * *

experiment: Solubility in PBS by nephelometry; format: physicochemical
MEASUREMENT LABEL: solubility kinetic (µg/mL)

Field: example entries. Status: answers known.
* Cc1cc(O)ccc1NC(=O)c1cc(N(CC2CC2)C2CCCCC2)ncn1 | 8
* Cc1cc(CN2CC(C(=O)O)C2)ccc1NC(=O)c1cc(N(CC2CC2)C2CCCCC2)ncn1 | 22
* Cc1cc(S(N)(=O)=O)ccc1NC(=O)c1cc(NC2CCCCC2)ncn1 | 5
* Cc1cc(S(N)(=O)=O)ccc1NC(=O)c1cc(N(CC2CC2)C2CCCCC2)ncn1 | 1
* Cc1cc2[nH]ncc2cc1NC(=O)c1cc(N(CC2CC2)C2CCCCC2)ncn1 | 5

I = CCCN(CC1CC1)c1cc(C(=O)Nc2ccc3[nH]ncc3c2)ncn1
II = CCCN(CCC)c1cc(C(=O)Nc2ccc(O)cc2)ncn1
In: Between I and II , which one has the lower reported solubility kinetic value? Your answer should be the label attached to the chosen record.
Out: I
(I: 11 µg/mL, II: 16 µg/mL)

* * *

assay: Intrinsic clearance in rat liver microsomes at 3 uM by LC/MS-MS analysis; format: ADME, Microsome
MEASUREMENT LABEL: microsomal CLint at 3 µM (µL/min/mg)

- Cc1cc(O)ccc1NC(=O)c1cc(N(CC2CC2)C2CCCCC2)ncn1: 52

a = CCCN(CC1CC1)c1cc(C(=O)Nc2ccc3[nH]ncc3c2)ncn1
b = CCCN(CCC)c1cc(C(=O)Nc2ccc(O)cc2)ncn1
c = Cc1cc(S(N)(=O)=O)ccc1NC(=O)c1cc(NC2CCCCC2)ncn1
d = Cc1cc(S(=O)(=O)NCCC(=O)O)ccc1NC(=O)c1cc(N(CC2CC2)C2CCCCC2)ncn1
In: Please order the records by their reported microsomal CLint at 3 µM, lowest number first. Write the labels, ordered according to the request.
Out: b, c, d, a
(b: 7 µL/min/mg, c: 15 µL/min/mg, d: 25 µL/min/mg, a: 57 µL/min/mg)

* * *

target: Sphingosine 1-phosphate receptor 5 (Homo sapiens, UniProt Q9H228); test: Agonist activity at S1P5 receptor expressed in CHO cells after 60 mins by [35S]-GTPgammaS binding assay
Sequence (Q9H228 whole entry): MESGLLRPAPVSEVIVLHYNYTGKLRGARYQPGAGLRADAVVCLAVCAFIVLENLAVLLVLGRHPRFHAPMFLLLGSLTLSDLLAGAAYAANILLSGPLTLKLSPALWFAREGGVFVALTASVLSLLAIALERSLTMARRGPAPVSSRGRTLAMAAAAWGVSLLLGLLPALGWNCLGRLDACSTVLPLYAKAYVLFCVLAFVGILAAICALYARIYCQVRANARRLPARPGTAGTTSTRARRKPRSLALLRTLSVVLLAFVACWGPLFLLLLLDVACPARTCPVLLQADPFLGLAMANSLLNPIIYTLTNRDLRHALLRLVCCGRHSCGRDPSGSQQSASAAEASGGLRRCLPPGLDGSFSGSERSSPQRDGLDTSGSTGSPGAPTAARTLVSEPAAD
MEASUREMENT LABEL: EC50 (nM)

Field: example entries. Status: answers known.
• Cc1cc(S(N)(=O)=O)ccc1NC(=O)c1cc(N(CC2CC2)C2CCCCC2)ncn1 = 96
• CCCN(CC1CC1)c1cc(C(=O)Nc2ccc3[nH]ncc3c2)ncn1 = 142
• Cc1cc(O)ccc1NC(=O)c1cc(NC2CCCCC2)ncn1 = 258
• Cc1cc(CN2CC(C(=O)O)C2)ccc1NC(=O)c1cc(N(CC2CC2)C2CCCCC2)ncn1 = 0.6
• O=C(O)CCNCc1ccc(NC(=O)c2cc(N(CC3CC3)C3CCCCC3)ncn2)cc1 = 6.3

P = Cc1cc(S(=O)(=O)NCCC(=O)O)ccc1NC(=O)c1cc(N(CC2CC2)C2CCCCC2)ncn1
Q = Cc1cc(O)ccc1NC(=O)c1cc(N(CC2CC2)C2CCCCC2)ncn1
In: Between P and Q , which one has the lower reported EC50 value? Your answer should be the label attached to the chosen record.
Out: P

* * *

test: Intrinsic clearance in human liver microsomes at 3 uM by LC/MS-MS analysis; format: ADME, Microsome
MEASUREMENT LABEL: microsomal CLint at 3 µM (µL/min/mg)

a = Cc1cc(O)ccc1NC(=O)c1cc(NC2CCCCC2)ncn1
b = Cc1cc(S(=O)(=O)NCCC(=O)O)ccc1NC(=O)c1cc(N(CC2CC2)C2CCCCC2)ncn1
c = Cc1cc(S(N)(=O)=O)ccc1NC(=O)c1cc(NC2CCCCC2)ncn1
d = Cc1cc(S(N)(=O)=O)ccc1NC(=O)c1cc(N(CC2CC2)C2CCCCC2)ncn1
In: Please rank these compounds by microsomal CLint at 3 µM in descending order. Write the labels, ordered according to the request.
Out: d, c, b, a

* * *

assay: Intrinsic clearance in rat liver microsomes at 3 uM by LC/MS-MS analysis; assay type: ADME, Microsome
MEASUREMENT LABEL: microsomal CLint at 3 µM

Field: example entries. Status: answers known.
• Cc1cc(S(N)(=O)=O)ccc1NC(=O)c1cc(N(CC2CC2)C2CCCCC2)ncn1 = 14 µL/min/mg
• O=C(O)CCNCc1ccc(NC(=O)c2cc(N(CC3CC3)C3CCCCC3)ncn2)cc1 = < 10 µL/min/mg

Here is the next item to consider.
In: Any idea what its microsomal CLint at 3 µM is? The compound is Cc1cc(CN2CC(C(=O)O)C2)ccc1NC(=O)c1cc(N(CC2CC2)C2CCCCC2)ncn1
Out: < 10 µL/min/mg

* * *

assay: Solubility in PBS by nephelometry; type: physicochemical
MEASUREMENT LABEL: solubility kinetic

* O=C(O)CCNCc1ccc(NC(=O)c2cc(N(CC3CC3)C3CCCCC3)ncn2)cc1 | > 0.045 mg/mL

In: Any idea what its solubility kinetic is? The compound is Cc1cc(S(=O)(=O)NCCC(=O)O)ccc1NC(=O)c1cc(N(CC2CC2)C2CCCCC2)ncn1
Out: > 0.051 mg/mL

In: Any idea what its solubility kinetic is? The compound is Cc1cc(O)ccc1NC(=O)c1cc(NC2CCCCC2)ncn1
Out: > 0.032 mg/mL
